- System Name: FLuc-C-NLuc (firefly luciferase) (Photinus pyralis, UniProt P08659, form not given/L550V)
- Sequence (P08659 2-550 L550V, form open): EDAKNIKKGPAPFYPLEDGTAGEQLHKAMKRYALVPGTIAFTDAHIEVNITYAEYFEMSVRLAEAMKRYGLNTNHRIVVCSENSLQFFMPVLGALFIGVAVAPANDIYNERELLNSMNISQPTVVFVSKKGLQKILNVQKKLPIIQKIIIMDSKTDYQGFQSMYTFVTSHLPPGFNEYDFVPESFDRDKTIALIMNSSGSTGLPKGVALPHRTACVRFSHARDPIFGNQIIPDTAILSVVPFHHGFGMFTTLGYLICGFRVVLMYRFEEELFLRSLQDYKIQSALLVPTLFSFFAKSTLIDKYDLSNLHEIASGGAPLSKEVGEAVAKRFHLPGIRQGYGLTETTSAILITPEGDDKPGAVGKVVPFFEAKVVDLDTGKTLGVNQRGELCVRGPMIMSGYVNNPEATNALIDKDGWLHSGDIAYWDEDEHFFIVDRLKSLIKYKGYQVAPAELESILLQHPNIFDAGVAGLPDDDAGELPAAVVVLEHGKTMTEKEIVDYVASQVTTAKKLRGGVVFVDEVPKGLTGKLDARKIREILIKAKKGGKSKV
- Assay Protocol: SDR assay, FLuc-C-NLuc
- Conditions Used: Log[Compound], M -8.78; absence of ATP
Measure Name: SDR

- CC(NC(=O)C1CCN(C(=O)c2ncn3c2COC(c2ccc(F)cc2)C3)CC1)c1ccc(F)cc1 (centres unmarked) [NCGC00449825]: 4.68
- O=C(Nc1cccc(F)c1)C1CCN(C(=O)c2ncn3c2COC(c2ccccc2)C3)CC1 (centres unmarked) [NCGC00449914]: 10.30
- COc1ccc(NC(=O)C2CCN(C(=O)c3ncn4c3COC(c3ccccc3)C4)CC2)cc1Cl (centres unmarked) [NCGC00449919]: 12.26
- CC(CNC(=O)C1CCN(C(=O)c2ncn3c2COC(c2ccccc2)C3)CC1)c1ccccc1 (centres unmarked) [compound 00449795]: 11.55
- CC1CCC(NC(=O)C2CCN(C(=O)c3ncn4c3COC(c3ccc(Cl)cc3)C4)CC2)CC1 (centres unmarked) [NCGC00449845]: 3.88
